B1: Tissue-type plasminogen activator, P00750 (parent)
chain: MDAMKRGLCCVLLLCGAVFVSPSQEIHARFRRGARSYQVICRDEKTQMIYQQHQSWLRPVLRSNRVEYCWCNSGRAQCHSVPVKSCSEPRCFNGGTCQQALYFSDFVCQCPEGFAGKCCEIDTRATCYEDQGISYRGTWSTAESGAECTNWNSSALAQKPYSGRRPDAIRLGLGNHNYCRNPDRDSKPWCYVFKAGKYSSEFCSTPACSEGNSDCYFGNGSAYRGTHSLTESGASCLPWNSMILIGKVYTAQNPSAQALGLGKHNYCRNPDGDAKPWCHVLKNRRLTWEYCDVPSCSTCGLRQYSQPQFRIKGGLFADIASHPWQAAIFAKHRRSPGERFLCGGILISSCWILSAAHCFQERFPPHHLTVILGRTYRVVPGEEEQKFEVEKYIVHKEFDDDTYDNDIALLQLKSDSSRCAQESSVVRTVCLPPADLQLPDWTECELSGYGKHEALSPFYSERLKEAHVRLYPSSRCTSQHLLNRTVTDNMLCAGDTRSGGPQANLHDACQGDSGGPLVCLNDGRMTLVGIISWGLGCGQKDVPGVYTKVTNYLDWIRDNMRP

Variants of: B1
condition_label: Homo sapiens; pH 4.5; Thermal; DSC; Citric acid/trisodium citrate 0.1 M/0.1 M/; reversible: yes; structure 1TPK; whole UniProt chain shown
Each entry below lists one item and its recorded Tm value.
The response must be a number in °C with no trailing unit.

Take a look at these entries with their results.
- V280S: 52.9
- V280L: 55.8
- V280A: 55.5

Please give the documented Tm of V280I
64.8

Please give the documented Tm of V280T
60

Please give the documented Tm of V280M
54.4
